Procedure Summary: […] solubility of the compound in water after 24 hrs by HPLC analysis
Format: physicochemical
Condition Notes: buffer, 24 h
Endpoint Label: log10(solubility) (log10 of the value in µM)
// do not treat as linear: log10 of solubility, unit µM

Sample answers from the record:
>>> print(df.to_string())
                            smiles_notation  reported_value
0  CC(C)(C)c1cc(C(=O)/C(C#N)=N/Nc2cc(F)c(F)c(F)c2)no1            2.33
1  CC(C)(C)c1cc(C(=O)/C(C#N)=N/Nc2cc(Cl)c(Cl)c(Cl)c2)no1            1.50
2  CC(C)(C)c1cc(C(=O)/C(C#N)=N/Nc2cc(C(F)(F)F)cc(C(F)(F)F)c2)no1            2.99
3  N#C/C(=N\Nc1cc(Cl)c(Cl)c(Cl)c1)C(=O)c1cc(C2CCCCC2)on1            1.37

In the following, a different molecule is considered.
The reported log10(solubility) of the molecule `CC(C)(C)c1cc(C(=O)/C(C#N)=N/Nc2ccc(F)c(Cl)c2)no1` was 2.37

---

Assayed System: Rap guanine nucleotide exchange factor 4 (Mus musculus) (UniProt Q9EQZ6)
Sequence (Q9EQZ6 whole entry): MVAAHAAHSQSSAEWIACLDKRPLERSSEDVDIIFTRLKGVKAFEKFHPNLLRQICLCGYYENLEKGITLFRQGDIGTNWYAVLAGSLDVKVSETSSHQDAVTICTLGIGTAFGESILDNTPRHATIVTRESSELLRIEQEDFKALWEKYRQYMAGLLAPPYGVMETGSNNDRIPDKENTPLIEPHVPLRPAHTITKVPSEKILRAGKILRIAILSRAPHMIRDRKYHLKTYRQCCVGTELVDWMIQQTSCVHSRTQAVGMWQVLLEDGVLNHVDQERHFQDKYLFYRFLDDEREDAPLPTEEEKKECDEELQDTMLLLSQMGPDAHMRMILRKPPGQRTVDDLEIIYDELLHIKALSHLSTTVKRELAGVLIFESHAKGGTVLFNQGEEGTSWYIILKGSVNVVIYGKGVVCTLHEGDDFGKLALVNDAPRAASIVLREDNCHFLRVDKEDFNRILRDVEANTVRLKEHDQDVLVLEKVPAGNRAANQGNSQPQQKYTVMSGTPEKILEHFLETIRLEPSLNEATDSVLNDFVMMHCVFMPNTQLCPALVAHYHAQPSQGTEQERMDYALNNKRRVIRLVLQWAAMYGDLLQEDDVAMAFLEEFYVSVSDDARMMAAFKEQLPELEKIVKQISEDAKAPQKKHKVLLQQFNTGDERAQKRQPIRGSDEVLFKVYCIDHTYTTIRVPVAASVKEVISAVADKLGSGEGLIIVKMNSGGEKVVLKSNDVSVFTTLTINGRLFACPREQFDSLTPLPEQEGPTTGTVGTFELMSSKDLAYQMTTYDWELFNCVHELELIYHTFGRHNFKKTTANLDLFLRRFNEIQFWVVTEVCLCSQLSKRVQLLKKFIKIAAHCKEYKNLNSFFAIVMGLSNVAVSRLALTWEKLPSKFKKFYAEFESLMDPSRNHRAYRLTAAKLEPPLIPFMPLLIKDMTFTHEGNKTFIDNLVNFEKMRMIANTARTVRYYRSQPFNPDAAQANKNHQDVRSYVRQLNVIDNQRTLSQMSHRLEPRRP
Procedure Summary: Ratio of cAMP IC50 to compound IC50 for displacement of 8-NBD-cAMP from mouse recombinant EPAC2 by fluorescence assay
Endpoint Label: Ratio IC50
Response field accepts a number only; no unit should be typed.

Field: example entries. Status: answers known.
                            smiles_notation  reported_value
0  N#C/C(=N\Nc1cccc(Cl)c1)C(=O)c1cc(C2CCCCC2)on1             2.8
1  CC(C)(C)c1cc(C(=O)/C(C#N)=N/Nc2cc(Cl)ccc2Cl)no1             4.4
2  CC(C)(C)c1cc(C(=O)/C(C#N)=N/Nc2cccc([N+](=O)[O-])c2)no1               1
3  CC(C)(C)c1cc(C(=O)/C(C#N)=N/Nc2ccc(Cl)cc2)no1             1.2
4  CC(C)(C)c1cc(C(=O)/C(C#N)=N/Nc2ccc(F)c(Cl)c2)no1            11.9

The observed Ratio IC50 for `CC(C)(C)c1cc(C(=O)/C(C#N)=N/Nc2ccc(Cl)c(Cl)c2)no1` when tested with Rap guanine nucleotide exchange factor 4 (Mus musculus) (UniProt Q9EQZ6) stands at 10.7

For the compound `CC(C)(C)c1cc(C(=O)/C(C#N)=N/Nc2ccccc2Cl)no1` , the measured Ratio IC50 on Rap guanine nucleotide exchange factor 4 (Mus musculus) (UniProt Q9EQZ6) was 1.1

Let me check: `CC(C)(C)c1cc(C(=O)/C(C#N)=N/Nc2cc(Cl)cc(Cl)c2)no1` , system Rap guanine nucleotide exchange factor 4 (Mus musculus) (UniProt Q9EQZ6), measured Ratio IC50 is 16.8

Lab entry: Rap guanine nucleotide exchange factor 4 (Mus musculus) (UniProt Q9EQZ6) assay, compound `CC(C)(C)c1cc(C(=O)/C(C#N)=N/Nc2cc(F)cc(Cl)c2)no1` , Ratio IC50 = 12.8

The value of Ratio IC50 recorded for `CC(C)(C)c1cc(C(=O)/C(C#N)=N/Nc2ccccc2)no1` when tested on Rap guanine nucleotide exchange factor 4 (Mus musculus) (UniProt Q9EQZ6) reads 0.5
